- tested-on: Receptor-type tyrosine-protein phosphatase C (Homo sapiens, UniProt P08575)
- Sequence (P08575 whole entry): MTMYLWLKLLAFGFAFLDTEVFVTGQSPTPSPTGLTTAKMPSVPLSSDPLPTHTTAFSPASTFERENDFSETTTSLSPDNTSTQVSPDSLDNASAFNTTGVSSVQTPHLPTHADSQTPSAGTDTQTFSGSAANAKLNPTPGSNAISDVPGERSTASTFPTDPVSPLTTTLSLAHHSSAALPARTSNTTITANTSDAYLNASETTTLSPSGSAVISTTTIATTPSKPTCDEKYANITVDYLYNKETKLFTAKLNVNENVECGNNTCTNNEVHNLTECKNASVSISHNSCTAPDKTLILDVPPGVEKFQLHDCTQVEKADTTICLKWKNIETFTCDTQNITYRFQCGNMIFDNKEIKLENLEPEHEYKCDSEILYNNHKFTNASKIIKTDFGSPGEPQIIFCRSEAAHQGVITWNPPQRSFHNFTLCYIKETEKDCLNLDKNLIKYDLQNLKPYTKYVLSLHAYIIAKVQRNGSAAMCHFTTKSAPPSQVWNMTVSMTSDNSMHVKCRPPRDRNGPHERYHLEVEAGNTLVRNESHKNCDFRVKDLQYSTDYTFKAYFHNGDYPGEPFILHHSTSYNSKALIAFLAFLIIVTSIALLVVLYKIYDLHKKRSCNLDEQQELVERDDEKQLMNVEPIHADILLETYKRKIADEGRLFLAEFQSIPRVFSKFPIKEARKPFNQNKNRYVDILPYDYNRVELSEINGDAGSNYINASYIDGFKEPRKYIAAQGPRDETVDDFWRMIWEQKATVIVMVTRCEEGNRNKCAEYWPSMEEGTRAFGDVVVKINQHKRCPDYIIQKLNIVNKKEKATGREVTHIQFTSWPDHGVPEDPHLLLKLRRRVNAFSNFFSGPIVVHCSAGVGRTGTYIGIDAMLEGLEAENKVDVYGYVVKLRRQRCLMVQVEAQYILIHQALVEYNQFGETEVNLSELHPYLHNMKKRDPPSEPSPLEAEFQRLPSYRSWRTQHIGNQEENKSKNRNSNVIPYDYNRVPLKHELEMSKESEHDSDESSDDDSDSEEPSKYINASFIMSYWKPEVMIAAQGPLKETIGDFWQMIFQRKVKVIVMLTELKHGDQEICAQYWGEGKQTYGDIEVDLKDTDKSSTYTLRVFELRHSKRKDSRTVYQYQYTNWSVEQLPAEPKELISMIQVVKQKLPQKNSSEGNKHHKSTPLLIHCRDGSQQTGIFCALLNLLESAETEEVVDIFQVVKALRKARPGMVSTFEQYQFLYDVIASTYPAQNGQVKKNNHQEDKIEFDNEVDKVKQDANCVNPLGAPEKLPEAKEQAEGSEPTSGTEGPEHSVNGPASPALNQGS
pIC50: −log10 of the molar value.
measurement-name: pIC50

>>> endpoint_result("COc1cc(/C=C2/NC(=O)N(Cc3ccccc3)C2=O)cc(Cl)c1OCc1cccc(C(=O)O)c1")
"< 4.40"
